Assign pIC50 to each entry below.
# Tested on: KP-4 (Pancreatic)
# assay details: Proliferation of KP-4
# Format: cell-based
# experimental conditions: read-out: IC50 KP-4 (Pancreatic)
pIC50: −log10 of the molar value.

Per the records, this compound ( CC1=C[C@H]2[C@@]3(O)[C@H](C)C[C@]4(OC(=O)[C@H](N)CCCCCCc5ccccc5)[C@H]([C@@H]3C=C(CO)C[C@]2(O)C1=O)C4(C)C ) has pIC50 equal to 7.22 to 7.52

Per the records, this compound ( CC1=C[C@H]2[C@@]3(O)[C@H](C)C[C@]4(OC(=O)[C@@H](N)CCC5CCCCC5)[C@H]([C@@H]3C=C(CO)C[C@]2(O)C1=O)C4(C)C ) has pIC50 equal to 7.52 to 8.00

Per the records, this compound ( CC1=C[C@H]2[C@@]3(O)[C@H](C)C[C@]4(OC(=O)[C@@H](N)[C@]56C[C@H]7C[C@H](C[C@H](C7)C5)C6)[C@H]([C@@H]3C=C(CO)C[C@]2(O)C1=O)C4(C)C ) has pIC50 equal to 8.00 to 9.00

Per the records, this compound ( CC1=C[C@H]2[C@@]3(O)[C@H](C)C[C@]4(OC(=O)[C@@H](N)CC5CCCCC5)[C@H]([C@@H]3C=C(CO)C[C@]2(O)C1=O)C4(C)C ) has pIC50 equal to 6.70 to 7.00

Per the records, this compound ( CC1=C[C@H]2[C@@]3(O)[C@H](C)C[C@]4(OC(=O)C(C)(C)C)[C@H]([C@@H]3C=C(CO)C[C@]2(O)C1=O)C4(C)C ) has pIC50 equal to 6.70 to 7.00

Per the records, this compound ( CC1=C[C@H]2[C@@]3(O)[C@H](C)C[C@]4(OC(=O)[C@@H](N)CCCCCCc5ccccc5)[C@H]([C@@H]3C=C(CO)C[C@]2(O)C1=O)C4(C)C ) has pIC50 equal to 8.00 to 9.00

Per the records, this compound ( CC(=O)O[C@@]12C[C@@H](C)[C@@]3(O)[C@@H](C=C(CO)C[C@]4(O)C(=O)C(C)=C[C@@H]34)[C@@H]1C2(C)C [Compound K101, prostratin, reference compound] ) has pIC50 equal to 6.22 to 6.70

Per the records, this compound ( CC1=C[C@H]2[C@@]3(O)[C@H](C)C[C@]4(OC(=O)[C@@H](N)CCc5ccccc5)[C@H]([C@@H]3C=C(CO)C[C@]2(O)C1=O)C4(C)C ) has pIC50 equal to 6.70 to 7.00
